Assay: Mean residence time in Sprague-Dawley rat at 2 mg/kg, iv
Format: ADME, organism-based
Set-up: dose 2 mg/kg, route intravenous
Settings: in vivo
ENDPOINT: MRT (min)
Give the value in min but do not write min after it.

Ask | Would you mind telling me what MRT value was observed for CC(=O)N[C@H]1[C@H]([C@H](O)[C@H](O)CO)OC(C(=O)NCc2cccc(F)c2)=C[C@@H]1NC(=N)N ?
Reply | 39

----------
Experiment: AUC (0 to 8 hrs) in Sprague-Dawley rat at 10 mg/kg, po
Format: ADME, organism-based
Design: time < 8 hr, dose 10 mg/kg, route oral
Conditions: plasma
ENDPOINT: AUC(0-t) at 8 h
Quote the value and follow it with the unit of measurement.

Ask | Would you mind telling me what AUC(0-t) at 8 h value was observed for CC(=O)N[C@H]1[C@H]([C@H](O)[C@H](O)CO)OC(C(=O)NCc2cccc(F)c2)=C[C@@H]1NC(=N)N ?
Reply | 378 ng·h/mL
